Known pEC50 of a selection of compounds
tested on: Human immunodeficiency virus 1; assay: Antiviral activity against NNRTI-resistant HIV1 A17 with reverse transcriptase K103N, Y181C mutant infected in human MT4 cells assessed as protection against virus-induced cytopathogenicity after 4 days by MTT assay; type: functional, organism-based; settings: Human immunodeficiency virus 1, A17, MT4, 96 h
pEC50: −log10 of the molar value.
endpoint_name: pEC50

smiles_record=c1cnc2c(c1)Cc1nn[nH]c1C2 observed="< 4.00"
smiles_record=c1cnc2cc3[nH]nnc3cc2c1 observed="< 4.00"
smiles_record=CCOn1nnc2c1Cc1cccnc1C2 observed="< 4.00"
smiles_record=[O-][n+]1n[nH]c2c1Cc1cccnc1C2 observed=5.00
smiles_record=O=C1Nc2ccc(Cl)cc2[C@@](C#CC2CC2)(C(F)(F)F)O1 observed=7.22
smiles_record=Cc1ccnc2c1NC(=O)c1cccnc1N2C1CC1 observed="< 4.70"
smiles_record=c1c2c(cc3[nH]nnc13)NCCC2 observed="< 4.00"
smiles_record=[O-][n+]1n[nH]c2c(Cl)c3ncccc3cc21 observed="< 4.00"

* * *

tested on: Human immunodeficiency virus 1; test: Antiviral activity against NNRTI-resistant HIV1 N119 with reverse transcriptase Y181C mutant infected in human MT4 cells assessed as protection against virus-induced cytopathogenicity after 4 days by MTT assay; type: functional, organism-based; conditions: Human immunodeficiency virus 1, N119, MT4, 96 h
Measured EC50, listed per entry.
endpoint_name: EC50

smiles_record=c1cnc2c(c1)Cc1nn[nH]c1C2 measured_on="Human immunodeficiency virus 1" observed="> 100 µM"
smiles_record=c1c2c(cc3[nH]nnc13)NCCC2 measured_on="Human immunodeficiency virus 1" observed="> 100 µM"
smiles_record=[O-][n+]1n[nH]c2c1Cc1cccnc1C2 measured_on="Human immunodeficiency virus 1" observed="4 µM"
smiles_record=Cc1ccnc2c1NC(=O)c1cccnc1N2C1CC1 measured_on="Human immunodeficiency virus 1" observed="7 µM"
smiles_record=c1cnc2cc3[nH]nnc3cc2c1 measured_on="Human immunodeficiency virus 1" observed="> 100 µM"
smiles_record=[O-][n+]1n[nH]c2c(Cl)c3ncccc3cc21 measured_on="Human immunodeficiency virus 1" observed="> 100 µM"
smiles_record=CCOn1nnc2c1Cc1cccnc1C2 measured_on="Human immunodeficiency virus 1" observed="> 100 µM"
